Here the recorded log10(IC50) is given for each entry.
target: GABA-A receptor; anion channel; experiment: Displacement of [3H]flunitrazepam from rat brain GABA-A Benzodiazepine receptor
Kindly note that the scale is log10 and the underlying IC50 is in µM.

Some solved cases for reference:
[
  {
    "Compound": "CCOC(=O)c1c(-c2ccc(C)cc2)nc2ccc(C)cn12",
    "log10(IC50)": 0.06
  },
  {
    "Compound": "CCCN(CCC)C(=O)CCc1c(-c2ccccc2)nc2ccc(Cl)cn12",
    "log10(IC50)": -0.51
  },
  {
    "Compound": "CCCN(CCC)C(=O)Cc1c(-c2ccccc2)nc2ccc(Br)cn12",
    "log10(IC50)": -0.94
  },
  {
    "Compound": "CCCN(CCC)C(=O)Cc1c(-c2ccccc2)nc2ccc(OC)cn12",
    "log10(IC50)": 0.45
  },
  {
    "Compound": "CCCN(CCC)C(=O)Cc1c(-c2ccccc2)nc2ccccn12",
    "log10(IC50)": -0.33
  }
]

What value of log10(IC50) has been reported for the following compound? CCCN(CCC)C(=O)Cc1c(-c2ccccc2)nc2ccc(C)cn12
-0.90

Try CCCCOC(=O)Cc1c(-c2ccccc2)nc2ccc(C)cn12 next.
0.50

Try CCOC(=O)Cc1c(-c2ccccc2)nc2ccc(C)cn12 next.
0.14

Try CCOC(=O)c1c(-c2ccccc2)nc2ccc(Cl)cn12 next.
0.33

Try CCOC(=O)CCc1c(-c2ccccc2)nc2ccc(Cl)cn12 next.
0.05

Try CCCCOC(=O)CCc1c(-c2ccccc2)nc2ccc(Cl)cn12 next.
0.07

Try O=C(c1c(-c2ccc(Cl)cc2)nc2ccc(Cl)cn12)N1CCCC1 next.
0.47

Try CCCN(CCC)C(=O)Cc1c(-c2ccccc2)nc2ccc([N+](=O)[O-])cn12 next.
0.44

* * *

biological target: Translocator protein (Rattus norvegicus)
Sequence (P16257 whole entry, looked up): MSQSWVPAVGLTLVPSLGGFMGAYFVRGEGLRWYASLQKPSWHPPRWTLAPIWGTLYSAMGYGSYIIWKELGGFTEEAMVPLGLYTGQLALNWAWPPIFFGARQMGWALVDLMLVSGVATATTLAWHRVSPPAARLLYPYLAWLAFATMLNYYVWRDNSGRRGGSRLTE
Measured quantity: pIC50
# pIC50 = -log10(concentration in molar units)

Some solved cases for reference:
[
  {
    "Smiles record": "O=C(Cc1c(-c2ccc(Cl)cc2)nc2ccc(Cl)cn12)N1CCCCC1",
    "pIC50": 7.73
  },
  {
    "Smiles record": "CCCN(CCC)C(=O)Cc1c(-c2ccc(Cl)cc2)nc2c(Cl)cc(Cl)cn12",
    "pIC50": 7.70
  },
  {
    "Smiles record": "CCCN(CCC)C(=O)Cc1c(-c2ccccc2)nc2c(Br)cc(C)cn12",
    "pIC50": 7.72
  },
  {
    "Smiles record": "CCCN(CCC)C(=O)Cc1c(-c2ccccc2)nc2ccccn12",
    "pIC50": 7.10
  },
  {
    "Smiles record": "CCCN(CCC)C(=O)Cc1c(-c2ccccc2)nc2c(Cl)cc(Cl)cn12",
    "pIC50": 7.92
  },
  {
    "Smiles record": "CCCN(CCC)C(=O)Cc1c(-c2ccc(Cl)cc2)nc2ccc(Br)cn12",
    "pIC50": 7.92
  },
  {
    "Smiles record": "CCCN(CCC)C(=O)Cc1c(-c2ccccc2)nc2ccc([N+](=O)[O-])cn12",
    "pIC50": 7.93
  },
  {
    "Smiles record": "CCCN(CCC)C(=O)Cc1c(-c2ccc(Cl)cc2)nc2ccc(Cl)cn12",
    "pIC50": 8.10
  }
]

What value of pIC50 has been reported for the following molecule? CCCN(CCC)C(=O)Cc1c(-c2ccc(Cl)cc2)nc2c(Cl)cc(C(F)(F)F)cn12
7.43

Try O=C(Cc1c(-c2ccc(Cl)cc2)nc2ccc(Cl)cn12)N1CCCC1 next.
6.54

Try CCCN(CCC)C(=O)Cc1c(-c2ccccc2)nc2ccc(Br)cn12 next.
7.84

Try CCCN(CCC)C(=O)Cc1c(-c2ccccc2)nc2ccc(OC)cn12 next.
7.47

Try Cc1ccc(-c2nc3ccc(C)cn3c2CC(=O)N(C)C)cc1 next.
5.33

Try CCCN(CCC)C(=O)Cc1c(-c2ccccc2)nc2ccc(C)cn12 next.
7.46

Try CCCN(CCC)C(=O)Cc1c(-c2ccc(Cl)cc2)nc2c(Br)cc(Br)cn12 next.
7.26
